The values you see were collected from PubChem BioAssay AID1918956.

Task for the reader: assign each of the following molecules its reported viability, T/C.
# Tested on: OVCAR-5 complex spheroids, viability
# method: Anticancer human tumor OVCAR-5 cell line growth inhibition;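 note: spheroids exposed to agents for seven days; 100% = DMSO vehicle control wells viability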
# particulars: second compound 1 µM; first compound 0.3 µM; stronger effect = lower value
# From the text: Multicellular complex tumor spheroid response to LSD1 Inhibitor Iadademstat in combination with a variety of drugs and investigational agents in selected tumor cell lines The current study was undertaken to assess response to LSD1 inhibitors in combination with standard-of-care drugs and investigational agents in solid tumor complex spheroid models as well as in the K-562 leukemia. […] Compounds. […] If the clinical Cmax for an agent had not been determined, the highest concentration tested was 10 microM. […]
Write it as a number; the unit % goes unstated.

Exercise: What does the record list as viability, T/C for O=C(C=Cc1cccc(S(=O)(=O)Nc2ccccc2)c1)NO + NC1CC1c1ccc(-c2cccc(O)c2)cc1 ?
Key: 25.3

Exercise: What does the record list as viability, T/C for Nc1ccccc1NC(=O)c1ccc(CNC(=O)OCc2cccnc2)cc1 + NC1CC1c1ccc(-c2cccc(O)c2)cc1 ?
Key: 32.4

Exercise: What does the record list as viability, T/C for Nc1ccn(C2OC(CO)C(O)C2(F)F)c(=O)n1 (centres undefined) + NC1CC1c1ccc(-c2cccc(O)c2)cc1 ?
Key: 25.4

Exercise: What does the record list as viability, T/C for CCN(c1cc(-c2ccc(CN3CCOCC3)cc2)cc(C(=O)NCc2c(C)cc(C)[nH]c2=O)c1C)C1CCOCC1 + NC1CC1c1ccc(-c2cccc(O)c2)cc1 ?
Key: 103

---

# Test system: OVCAR-5 complex spheroids, viability
# method: Anticancer human tumor OVCAR-5 cell line growth inhibition;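 note: spheroids exposed to agents for seven days; 100% = DMSO vehicle control wells viability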
# particulars: second compound 0.316 µM; first compound 0.001 µM; stronger effect = lower value
Task for the reader: assign each of the following molecules its reported viability, T/C.
Write it as a number; the unit % goes unstated.

Exercise: What does the record list as viability, T/C for Cn1ncnc1C1c2n[nH]c(=O)c3cc(F)cc(c23)NC1c1ccc(F)cc1 (stereo not drawn) + NC1CC1c1ccc(-c2cccc(O)c2)cc1 ?
Key: 99.3

Exercise: What does the record list as viability, T/C for CC[C@@]1(O)C(=O)OCc2c1cc1n(c2=O)Cc2cc3c(CN(C)C)c(O)ccc3nc2-1 + NC1CCC(NC2CC2c2ccccc2)CC1 ?
Key: 97.7

Exercise: What does the record list as viability, T/C for CC(C)CC(NC(=O)C(Cc1ccccc1)NC(=O)c1cnccn1)B(O)O (stereo not drawn) + NC1CCC(NC2CC2c2ccccc2)CC1 ?
Key: 97.9

Exercise: What does the record list as viability, T/C for CC[C@@]1(O)C(=O)OCc2c1cc1n(c2=O)Cc2cc3c(CN(C)C)c(O)ccc3nc2-1 + NC1CC1c1ccc(-c2cccc(O)c2)cc1 ?
Key: 87.3

Exercise: What does the record list as viability, T/C for CC(C)CC(NC(=O)CNC(=O)c1cc(Cl)ccc1Cl)B1OC(=O)CC(CC(=O)O)(C(=O)O)O1 (stereo not drawn) + NC1CC1c1ccc(-c2cccc(O)c2)cc1 ?
Key: 92.1

Exercise: What does the record list as viability, T/C for Cn1ncnc1C1c2n[nH]c(=O)c3cc(F)cc(c23)NC1c1ccc(F)cc1 (stereo not drawn) + NC1CCC(NC2CC2c2ccccc2)CC1 ?
Key: 98.7

Exercise: What does the record list as viability, T/C for CC(C)CC(NC(=O)CNC(=O)c1cc(Cl)ccc1Cl)B1OC(=O)CC(CC(=O)O)(C(=O)O)O1 (stereo not drawn) + NC1CCC(NC2CC2c2ccccc2)CC1 ?
Key: 112

Exercise: What does the record list as viability, T/C for CC(C)CC(NC(=O)C(Cc1ccccc1)NC(=O)c1cnccn1)B(O)O (stereo not drawn) + NC1CC1c1ccc(-c2cccc(O)c2)cc1 ?
Key: 98.8
